Measurement Conditions: in acetone, 290.81 K
Endpoint Name: solubility (mole fraction)
Answers are plain numbers.

Can you look up the measured solubility (mole fraction) of Cc1ccc(NC(=O)C(C)Cl)cc1 (stereo unspecified) for me?
0.0861

###

Measurement Conditions: in toluene, 321.66 K
Endpoint Name: solubility (mole fraction)
Numbers only.

Can you look up the measured solubility (mole fraction) of Cc1ccc(NC(=O)C(C)Cl)cc1 (stereo unspecified) for me?
0.0579

###

Measurement Conditions: in acetone, 271.96 K
Endpoint Name: solubility (mole fraction)

Can you look up the measured solubility (mole fraction) of Cc1ccc(NC(=O)C(C)Cl)cc1 (stereo unspecified) for me?
0.0616

###

Measurement Conditions: in acetone, 307.95 K
Endpoint Name: solubility (mole fraction)
Answers are plain numbers.

Can you look up the measured solubility (mole fraction) of Cc1ccc(NC(=O)C(C)Cl)cc1 (stereo unspecified) for me?
0.136

###

Measurement Conditions: in 2-butanone, 271.23 K
Endpoint Name: solubility (mole fraction)

Can you look up the measured solubility (mole fraction) of Cc1ccc(NC(=O)C(C)Cl)cc1 (stereo unspecified) for me?
0.0774

###

Measurement Conditions: in acetone, 300.04 K
Endpoint Name: solubility (mole fraction)
Answers are plain numbers.

Can you look up the measured solubility (mole fraction) of Cc1ccc(NC(=O)C(C)Cl)cc1 (stereo unspecified) for me?
0.105

###

Measurement Conditions: in 2-butanone, 296.73 K
Endpoint Name: solubility (mole fraction)
Answers are plain numbers.

Can you look up the measured solubility (mole fraction) of Cc1ccc(NC(=O)C(C)Cl)cc1 (stereo unspecified) for me?
0.128

###

Measurement Conditions: in 2-butanone, 280.9 K
Endpoint Name: solubility (mole fraction)
Answers are plain numbers.

Can you look up the measured solubility (mole fraction) of Cc1ccc(NC(=O)C(C)Cl)cc1 (stereo unspecified) for me?
0.0892

###

Measurement Conditions: in toluene, 312.06 K
Endpoint Name: solubility (mole fraction)
Numbers only.

Can you look up the measured solubility (mole fraction) of Cc1ccc(NC(=O)C(C)Cl)cc1 (stereo unspecified) for me?
0.0356
